- Tested on: 233499-124-R-J3-PDC spheroids with HUVEC/MSC, viability;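 also: spheroids exposed to agents for seven days before readout; percent viability relative to DMSO vehicle control taken as 100%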
- ASSAY NOTES: Anticancer human tumor 233499-124-R-J3-PDC patient-derived colon adenocarcinoma cell line growth inhibition [PI3K]
- CONDITION SUMMARY: second compound 0.316 µM; first compound 0.1 µM; hits give low values
- Source text: Combinatorial screen of targeted agents with the PI3K inhibitors inavolisib, alpelisib, duvelisib, and copanlisib in multi-cell type tumor spheroids A high-throughput screen of multi-cell type tumor spheroids was designed to identify active combinations of targeted small molecules and PI3K pathway inhibitors. […] Compounds. […] If the clinical Cmax for an agent had not been determined, the highest concentration tested was 10 microM. […]
viability, T/C for assorted compounds
RESULT TYPE: viability, T/C (%)

INSERT INTO measurements (compound, measured_value) VALUES
  ('CC1(C)CCC(CN2CCN(c3ccc(C(=O)NS(=O)(=O)c4ccc(NCC5CCOCC5)c([N+](=O)[O-])c4)c(Oc4cnc5[nH]ccc5c4)c3)CC2)=C(c2ccc(Cl)cc2)C1 + CC(Nc1ncnc2nc[nH]c12)c1cc2cccc(Cl)c2c(=O)n1-c1ccccc1', 92.6),
  ('CC(Cn1ccc(-c2ccc(C#N)c(Cl)c2)n1)NC(=O)c1cc(C(C)O)[nH]n1 (stereo unspecified) + Cc1nc(NC(=O)N2CCCC2C(N)=O)sc1-c1ccnc(C(C)(C)C(F)(F)F)c1', 74.3),
  ('C=CC(=O)N1CCN(c2nc(=O)n(-c3c(C)ccnc3C(C)C)c3nc(-c4c(O)cccc4F)c(F)cc23)C(C)C1 (stereo unspecified) + CC(Nc1ccc2c(c1)OCCn1cc(N3C(=O)OCC3C(F)F)nc1-2)C(N)=O', 80.5),
  ('CNC(=O)c1ccc(N2C(=S)N(c3ccc(C#N)c(C(F)(F)F)c3)C(=O)C2(C)C)cc1F + Cc1nc(NC(=O)N2CCCC2C(N)=O)sc1-c1ccnc(C(C)(C)C(F)(F)F)c1', 100),
  ('Cn1nccc1Nc1nccc(-c2ccn(C(CO)c3ccc(Cl)c(F)c3)c(=O)c2)n1 (stereo unspecified) + Cc1nc(NC(=O)N2CCCC2C(N)=O)sc1-c1ccnc(C(C)(C)C(F)(F)F)c1', 63.8),
  ('CC1(C)CCC(Nc2ncc(C(F)(F)F)c(-c3c[nH]c4c(P(C)(C)=O)c(C#N)ccc34)n2)CN1 (stereo unspecified) + CC(Nc1ccc2c(c1)OCCn1cc(N3C(=O)OCC3C(F)F)nc1-2)C(N)=O', 43),
  ('C[C@@H](NC(=O)c1ncnc(N)c1Cl)c1ncc(C(=O)Nc2cc(C(F)(F)F)c(Cl)cn2)s1 + CC(Nc1ncnc2nc[nH]c12)c1cc2cccc(Cl)c2c(=O)n1-c1ccccc1', 120),
  ('CC(C)NCC(C(=O)N1CCN(c2ncnc3c2C(C)CC3O)CC1)c1ccc(Cl)cc1 (stereo unspecified) + CC(Nc1ccc2c(c1)OCCn1cc(N3C(=O)OCC3C(F)F)nc1-2)C(N)=O', 83.2),
  ('CC1(C)CCC(Nc2ncc(C(F)(F)F)c(-c3c[nH]c4c(P(C)(C)=O)c(C#N)ccc34)n2)CN1 (stereo unspecified) + Cc1nc(NC(=O)N2CCCC2C(N)=O)sc1-c1ccnc(C(C)(C)C(F)(F)F)c1', 76.9),
  ('CC(C)n1nc(-c2ccc3oc(N)nc3c2)c2c(N)ncnc21 + Cc1nc(NC(=O)N2CCCC2C(N)=O)sc1-c1ccnc(C(C)(C)C(F)(F)F)c1', 53.9),
  ('CNC(=O)c1ccc(N2C(=S)N(c3ccc(C#N)c(C(F)(F)F)c3)C(=O)C2(C)C)cc1F + CC(Nc1ccc2c(c1)OCCn1cc(N3C(=O)OCC3C(F)F)nc1-2)C(N)=O', 38),
  ('Cn1nccc1Nc1nccc(-c2ccn(C(CO)c3ccc(Cl)c(F)c3)c(=O)c2)n1 (stereo unspecified) + CC(Nc1ccc2c(c1)OCCn1cc(N3C(=O)OCC3C(F)F)nc1-2)C(N)=O', 73),
  ('CC1(C)CCC(CN2CCN(c3ccc(C(=O)NS(=O)(=O)c4ccc(NCC5CCOCC5)c([N+](=O)[O-])c4)c(Oc4cnc5[nH]ccc5c4)c3)CC2)=C(c2ccc(Cl)cc2)C1 + Cc1nc(NC(=O)N2CCCC2C(N)=O)sc1-c1ccnc(C(C)(C)C(F)(F)F)c1', 89.3),
  ('CC1(C)CCC(Nc2ncc(C(F)(F)F)c(-c3c[nH]c4c(P(C)(C)=O)c(C#N)ccc34)n2)CN1 (stereo unspecified) + CC(Nc1ncnc2nc[nH]c12)c1cc2cccc(Cl)c2c(=O)n1-c1ccccc1', 46),
  ('C[C@@H](NC(=O)c1ncnc(N)c1Cl)c1ncc(C(=O)Nc2cc(C(F)(F)F)c(Cl)cn2)s1 + Cc1nc(NC(=O)N2CCCC2C(N)=O)sc1-c1ccnc(C(C)(C)C(F)(F)F)c1', 104),
  ('C#Cc1c(F)ccc2cc(O)cc(-c3ncc4c(N5CC6CCC(C5)N6)nc(OCC56CCCN5CC(F)C6)nc4c3F)c12 (stereo unspecified) + Cc1nc(NC(=O)N2CCCC2C(N)=O)sc1-c1ccnc(C(C)(C)C(F)(F)F)c1', 83),
  ('C[C@@H](NC(=O)c1ncnc(N)c1Cl)c1ncc(C(=O)Nc2cc(C(F)(F)F)c(Cl)cn2)s1 + CC(Nc1ccc2c(c1)OCCn1cc(N3C(=O)OCC3C(F)F)nc1-2)C(N)=O', 81.2),
  ('CC(C)n1nc(-c2ccc3oc(N)nc3c2)c2c(N)ncnc21 + CC(Nc1ccc2c(c1)OCCn1cc(N3C(=O)OCC3C(F)F)nc1-2)C(N)=O', 24.2),
  ('CC(C)n1nc(-c2ccc3oc(N)nc3c2)c2c(N)ncnc21 + COc1c(OCCCN2CCOCC2)ccc2c3n(c(=NC(=O)c4cnc(N)nc4)nc12)CCN3', 9.14),
  ('CC(=O)c1c(C)c2cnc(Nc3ccc(N4CCNCC4)cn3)nc2n(C2CCCC2)c1=O + CC(Nc1ncnc2nc[nH]c12)c1cc2cccc(Cl)c2c(=O)n1-c1ccccc1', 77.2),
  ('Cn1ncnc1[C@H]1c2n[nH]c(=O)c3cc(F)cc(c23)N[C@@H]1c1ccc(F)cc1 + CC(Nc1ncnc2nc[nH]c12)c1cc2cccc(Cl)c2c(=O)n1-c1ccccc1', 70);

Reference source for all entries: PubChem BioAssay AID1963984
